Reference source for all entries: paper PMC7533888

# targetOrSystem: T1, AtARF5-DBD (Arabidopsis thaliana, UniProt P93024 1-390)
# T1 sequence: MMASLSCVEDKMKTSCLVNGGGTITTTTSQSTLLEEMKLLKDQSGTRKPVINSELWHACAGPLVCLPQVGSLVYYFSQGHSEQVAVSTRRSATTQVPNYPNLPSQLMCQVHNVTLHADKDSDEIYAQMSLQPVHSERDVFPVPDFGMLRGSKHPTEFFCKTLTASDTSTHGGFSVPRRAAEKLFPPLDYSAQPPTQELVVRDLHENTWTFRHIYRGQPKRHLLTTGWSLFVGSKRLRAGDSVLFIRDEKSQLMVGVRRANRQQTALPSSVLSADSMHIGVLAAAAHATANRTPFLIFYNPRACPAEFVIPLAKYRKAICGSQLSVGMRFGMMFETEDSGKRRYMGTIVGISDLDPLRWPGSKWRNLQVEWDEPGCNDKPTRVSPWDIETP
# procedureDetails: smFRET titration
The binders listed here are annotated with their pKd.
// pKd is dimensionless: -log10 of concentration (M)

binder | pKd
DR5 (dsDNA) DNA 1: ACTGCCTTTTGTCGGCCTTTTGTCGGATCCGTGTG DNA 2: CACACGGATCCGACAAAAGGCCGACAAAAGGCAGT | 7.22

With those in mind, consider the next binder.
QUERY: Given the entry IR8 (dsDNA) DNA 1: ACTCTTTTTTGTCGGGGAAAAGGCCGACAATCCGTGTG DNA 2: CACACGGATTGTCGGCCTTTTCCCCGACAAAAAAGAGT , report its measured pKd.
RESULT: 8.05
